Please go through the items and note down their melting point.

Known results for compounds:
[[record]]
compound = "Oc1cc(O)cc(-c2nc3cc(Cl)ccc3s2)c1 [Compound 90]"
result = "129.6 to 130.6 °C"

[[record]]
compound = "O=C(O)[C@@H]1CSC(c2ccc(O)c(O)c2)N1 (mixture of isomers) [Compound 2]"
result = "195.5 to 196.8 °C"

[[record]]
compound = "COc1cc(-c2nc3cc(C(=O)O)ccc3[nH]2)cc(OC)c1O [Compound 68]"
result = "280 to 281.4 °C"

[[record]]
compound = "Oc1ccc(-c2nc3cc(Cl)ccc3s2)cc1Br [Compound 95]"
result = "226 to 228.1 °C"

[[record]]
compound = "c1ccc(COc2ccc(-c3nc4ccccc4s3)cc2)cc1 [Compound 107, 2-(4-(benzyloxy)phenyl)benzo[d]thiazole]"
result = "166.1 to 167.2 °C"

[[record]]
compound = "Oc1ccc(-c2nc3cc(C(F)(F)F)ccc3s2)cc1O [Compound 29]"
result = "267.3 to 269.4 °C"


Now consider the entry below.
Hello, please tell me recorded melting point for this one: Oc1ccccc1-c1nc2cc(Cl)ccc2s1 [Compound 92, 2-(5-chlorobenzo[d]thiazol-2-yl)phenol]
194.2 to 195.7 °C
